Each record here notes measured hGLP1R cAMP Rel EC50.
# MEASUREMENT_TARGET: human GLP-1 receptor (GLP-1R) (human, UniProt P43220 24-463)
# EXPERIMENT_DESCRIPTION: cell-based or functional assay
Square brackets hold non-standard residues; d marks the D form. Ends that are not written are not given here. αMeF = C[C@](N)(Cc1ccccc1)C(=O)O; Aib = CC(C)(N)C(=O)O
MEASUREMENT_KIND: hGLP1R cAMP Rel EC50 (nM)

BINDER: Y[Aib]EGT[αMeF]TSDYSIXLDKKAQ[Aib][Aib]FIEYLIEGGPSSGAPPPS-NH2 (not fully specified (residues 13, 17); printed as Y-Aib-EGT-αMeF-TSDYSI-αMeF-LDKK((2-[2-(2-Amino-ethoxy)-ethoxy]-acetyl)2-(γ-Glu)-CO-(CH2)18-CO2H)AQ-Aib-Aib-FIEYLIEGGPSSGAPPPS-NH2) [Example 143]
MEASUREMENT_KIND: hGLP1R cAMP Rel EC50
RECORDED_MEASUREMENT: 0.0745
//
BINDER: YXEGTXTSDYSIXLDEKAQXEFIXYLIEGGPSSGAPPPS (Y-Aib-EGT-αMeF(2F)-TSDYSI-Aib-LDEK((2-[2-(2-Amino-ethoxy)-ethoxy]-acetyl)2-(γ-Glu)-CO-(CH2)18-CO2H)AQ-Aib-EFI-(D-Glu)-YLIEGGPSSGAPPPS-NH2) [Example 224]
MEASUREMENT_KIND: hGLP1R cAMP Rel EC50
RECORDED_MEASUREMENT: 0.0349
//
BINDER: YXEGTXTSDHSIXLDXKAQXTFIXYLIEGGPSSGAPPPS (Y-Aib-EGT-αMeF(2F)-TSDHSI-αMeF-LD-Dab-K((2-[2-(2-Amino-ethoxy)-ethoxy]-acetyl)2-(γ-Glu)-CO-(CH2)18-CO2H)AQ-Aib-TFI-(D-Glu)-YLIEGGPSSGAPPPS-NH2) [Example 172]
MEASUREMENT_KIND: hGLP1R cAMP Rel EC50
RECORDED_MEASUREMENT: 1.2

Reference source: patent US20220048967A1
